ASSAY PROCEDURE: Hematic levels in the rat (absorption by oral route)
CONDITIONS: rat, blood, po, 100 mg/kg, Hematic levels in the rat, 5 hours, 100 mg/kg as erythromycin, average
MEASUREMENT LABEL: concentration at 5 h
Provide the measurement as a number trailed by its unit.

So, CC[C@H]1OC(=O)[C@H](C)[C@@H](O[C@H]2C[C@@](C)(OC)[C@@H](O)[C@H](C)O2)[C@H](C)[C@@H](O[C@@H]2O[C@H](C)C[C@H](N(C)C)[C@H]2O)[C@](C)(O)C[C@@H](C)C(=O)[C@H](C)[C@@H](O)[C@]1(C)O [erythromycin] ? Its concentration at 5 h was 260 ng/mL

---

ASSAY PROCEDURE: in vivo
CONDITIONS: rat, po, 100 mg/kg, Hematic levels in the rat
MEASUREMENT LABEL: concentration at 2 h (ng/mL)
Use ng/mL as the unit, but write only the number.

So, CCC(=O)O[C@H]1[C@H](O[C@@H]2[C@@H](C)[C@H](O[C@H]3C[C@@](C)(OC)[C@@H](O)[C@H](C)O3)[C@@H](C)C(=O)O[C@H](CC)[C@@](C)(O)[C@H](O)[C@@H](C)C(=O)[C@H](C)C[C@@]2(C)O)O[C@H](C)C[C@@H]1N(C)C [erythromycin estolate, reference compound] ? Its concentration at 2 h was 2490

---

I'd be grateful if you could share measured log10(MIC) for these entries.
Tested on: C. diphtheriae SS 19
Type: cell-based
CONDITIONS: Brain Heart Infusion, estolate and RV11-RV15 previously hydrolized, unit assumed
// do not treat as linear: log10 of MIC, unit µg/mL

Bench note, C. diphtheriae SS 19: CC[C@H]1OC(=O)[C@H](C)[C@@H](O[C@H]2C[C@@](C)(OC)[C@@H](O)[C@H](C)O2)[C@H](C)[C@@H](O[C@@H]2O[C@H](C)C[C@H](N(C)C)[C@H]2O)[C@](C)(O)C[C@@H](C)C(=O)[C@H](C)[C@@H](O)[C@]1(C)O [erythromycin] , log10(MIC) reads -2.00

Bench note, C. diphtheriae SS 19: CC[C@H]1OC(=O)[C@H](C)[C@@H](O[C@H]2C[C@@](C)(OC)[C@@H](O)[C@H](C)O2)[C@H](C)[C@@H](O[C@@H]2O[C@H](C)C[C@H](N(C)C)[C@H]2O)[C@](C)(O)C[C@@H](C)C(=O)[C@H](C)[C@@H](O)[C@]1(C)O [RV05, erythromycin-N-acetylcysteinate] , log10(MIC) reads -1.30

Bench note, C. diphtheriae SS 19: CC[C@H]1OC(=O)[C@H](C)[C@@H](O[C@H]2C[C@@](C)(OC)[C@@H](O)[C@H](C)O2)[C@H](C)[C@@H](O[C@@H]2O[C@H](C)C[C@H](N(C)C)[C@H]2O)[C@](C)(O)C[C@@H](C)C(=O)[C@H](C)[C@@H](O)[C@]1(C)O [RV04, erythromycin-S-carboxymethylcysteinate] , log10(MIC) reads -0.69

Bench note, C. diphtheriae SS 19: CCC(=O)O[C@H]1[C@H](O[C@@H]2[C@@H](C)[C@H](O[C@H]3C[C@@](C)(OC)[C@@H](O)[C@H](C)O3)[C@@H](C)C(=O)O[C@H](CC)[C@@](C)(O)[C@H](O)[C@@H](C)C(=O)[C@H](C)C[C@@]2(C)O)O[C@H](C)C[C@@H]1N(C)C [RV11] , log10(MIC) reads -2.00

Bench note, C. diphtheriae SS 19: CCC(=O)O[C@H]1[C@H](O[C@@H]2[C@@H](C)[C@H](O[C@H]3C[C@@](C)(OC)[C@@H](O)[C@H](C)O3)[C@@H](C)C(=O)O[C@H](CC)[C@@](C)(O)[C@H](O)[C@@H](C)C(=O)[C@H](C)C[C@@]2(C)O)O[C@H](C)C[C@@H]1N(C)C [RV15] , log10(MIC) reads -1.70

Bench note, C. diphtheriae SS 19: CCC(=O)O[C@H]1[C@H](O[C@@H]2[C@@H](C)[C@H](O[C@H]3C[C@@](C)(OC)[C@@H](O)[C@H](C)O3)[C@@H](C)C(=O)O[C@H](CC)[C@@](C)(O)[C@H](O)[C@@H](C)C(=O)[C@H](C)C[C@@]2(C)O)O[C@H](C)C[C@@H]1N(C)C [RV13] , log10(MIC) reads -2.00

Bench note, C. diphtheriae SS 19: CC[C@H]1OC(=O)[C@H](C)[C@@H](O[C@H]2C[C@@](C)(OC)[C@@H](O)[C@H](C)O2)[C@H](C)[C@@H](O[C@@H]2O[C@H](C)C[C@H](N(C)C)[C@H]2O)[C@](C)(O)C[C@@H](C)C(=O)[C@H](C)[C@@H](O)[C@]1(C)O [RV01, erythromycin alpha-mercaptosuccinate] , log10(MIC) reads -1.60

---

ASSAY PROCEDURE: Hematic levels in the rat (absorption by oral route)
CONDITIONS: 0.30 hours, 100 mg/kg as erythromycin, average, 100 mg/kg, 18 min
MEASUREMENT LABEL: Hematic levels in the rat
Provide the measurement as a number trailed by its unit.

So, CC[C@H]1OC(=O)[C@H](C)[C@@H](O[C@H]2C[C@@](C)(OC)[C@@H](O)[C@H](C)O2)[C@H](C)[C@@H](O[C@@H]2O[C@H](C)C[C@H](N(C)C)[C@H]2O)[C@](C)(O)C[C@@H](C)C(=O)[C@H](C)[C@@H](O)[C@]1(C)O [RV04, erythromycin-S-carboxymethylcysteinate] ? Its Hematic levels in the rat was 0.50 µg/mL

So, CC[C@H]1OC(=O)[C@H](C)[C@@H](O[C@H]2C[C@@](C)(OC)[C@@H](O)[C@H](C)O2)[C@H](C)[C@@H](O[C@@H]2O[C@H](C)C[C@H](N(C)C)[C@H]2O)[C@](C)(O)C[C@@H](C)C(=O)[C@H](C)[C@@H](O)[C@]1(C)O [RV01, erythromycin alpha-mercaptosuccinate] ? Its Hematic levels in the rat was 0.48 µg/mL

So, CC[C@H]1OC(=O)[C@H](C)[C@@H](O[C@H]2C[C@@](C)(OC)[C@@H](O)[C@H](C)O2)[C@H](C)[C@@H](O[C@@H]2O[C@H](C)C[C@H](N(C)C)[C@H]2O)[C@](C)(O)C[C@@H](C)C(=O)[C@H](C)[C@@H](O)[C@]1(C)O [RV03, erythromycyn-thiazolidin-carboxylate] ? Its Hematic levels in the rat was 0.58 µg/mL

So, CC[C@H]1OC(=O)[C@H](C)[C@@H](O[C@H]2C[C@@](C)(OC)[C@@H](O)[C@H](C)O2)[C@H](C)[C@@H](O[C@@H]2O[C@H](C)C[C@H](N(C)C)[C@H]2O)[C@](C)(O)C[C@@H](C)C(=O)[C@H](C)[C@@H](O)[C@]1(C)O [RV05, erythromycin-N-acetylcysteinate] ? Its Hematic levels in the rat was 0.44 µg/mL

---

CONDITIONS: in vivo, po, 100 mg/kg, 5 h
I'd be grateful if you could share measured Hematic levels in the rat for these entries.
Use µg/mL as the unit, but write only the number.

So, CCC(=O)O[C@H]1[C@H](O[C@@H]2[C@@H](C)[C@H](O[C@H]3C[C@@](C)(OC)[C@@H](O)[C@H](C)O3)[C@@H](C)C(=O)O[C@H](CC)[C@@](C)(O)[C@H](O)[C@@H](C)C(=O)[C@H](C)C[C@@]2(C)O)O[C@H](C)C[C@@H]1N(C)C [RV15] ? Its Hematic levels in the rat was 0.44

So, CCC(=O)O[C@H]1[C@H](O[C@@H]2[C@@H](C)[C@H](O[C@H]3C[C@@](C)(OC)[C@@H](O)[C@H](C)O3)[C@@H](C)C(=O)O[C@H](CC)[C@@](C)(O)[C@H](O)[C@@H](C)C(=O)[C@H](C)C[C@@]2(C)O)O[C@H](C)C[C@@H]1N(C)C [RV13] ? Its Hematic levels in the rat was 0.52

So, CCC(=O)O[C@H]1[C@H](O[C@@H]2[C@@H](C)[C@H](O[C@H]3C[C@@](C)(OC)[C@@H](O)[C@H](C)O3)[C@@H](C)C(=O)O[C@H](CC)[C@@](C)(O)[C@H](O)[C@@H](C)C(=O)[C@H](C)C[C@@]2(C)O)O[C@H](C)C[C@@H]1N(C)C [RV11] ? Its Hematic levels in the rat was 0.38

So, CCC(=O)O[C@H]1[C@H](O[C@@H]2[C@@H](C)[C@H](O[C@H]3C[C@@](C)(OC)[C@@H](O)[C@H](C)O3)[C@@H](C)C(=O)O[C@H](CC)[C@@](C)(O)[C@H](O)[C@@H](C)C(=O)[C@H](C)C[C@@]2(C)O)O[C@H](C)C[C@@H]1N(C)C [RV14] ? Its Hematic levels in the rat was 0.54
